# Test system: HCT-15 colon
# test summary: NCI-60 one-dose screen, 48 h (100 = growth as untreated, 0 = no growth, -100 = all killed)
# settings: 10 µM unless noted
# Description: Growth inhibition of the HCT-15 human tumor cell line is measured as a screen for anti-cancer activity. Cells are grown in 96 well plates and exposed to the test compound for 48 hours. Compounds are tested at a single concentration, which is 10^-5 M for most compounds. The reported endpoint is percent growth (GI% or GIPRCNT), where numbers from 0 - 100% represent growth inhibition, and numbers from -100% - 0 represent cell death. For example, a value of 40 represents 60% growth inhibition. […]
Compounds without any hit were thinned out: in the full panel of roughly 83,000, 20% have a hit.
Items are presented alongside their recorded growth.
Answer in %, number only, no unit symbol.

Take a look at these entries with their results.
Task: May I ask what growth has been recorded for `O=C(N/N=C/c1c[nH]c2ccccc12)c1cc(-c2ccccc2)on1` ?
Result: 71.2

Task: Similarly, `O=S(=O)(Nc1ccc(NS(=O)(=O)c2ccccc2)c(Cl)c1)c1ccccc1` ?
Result: 110

Task: Similarly, `CN1CCN(CCCOc2cccc3nc(Nc4ccc(Cl)c(F)c4)ccc23)CC1` ?
Result: -48.3

Task: Similarly, `O=C(N=Nc1c(O)[nH]c2ccc(Br)cc12)c1cc(-c2ccccc2)on1` ?
Result: 103

Task: Similarly, `CC1=C[C@H]2c3c(c(O)c(O)c4oc5ccccc5c(=O)c34)[C@H](c3cc(O)c(O)c4oc5ccccc5c(=O)c34)[C@H]2C(C)(C)C1` ?
Result: 13.7

---
Task: May I ask what growth has been recorded for `O=C(COc1cccc(/C=C2\COc3ccccc3C2=O)c1)Nc1nccs1` ?
Result: -17.9

Task: Similarly, `CC1=C[C@H]2c3c(c(O)c(O)c4oc5c(C)cccc5c(=O)c34)[C@H](c3cc(O)c(O)c4oc5c(C)cccc5c(=O)c34)[C@H]2C(C)(C)C1` ?
Result: 12.5

Task: Similarly, `C=CC(=O)Nc1cccc(-c2nc(SC)nc(Nc3cccc(OC)c3)c2C#N)c1` ?
Result: 52.5

Task: Similarly, `Nc1ccc(S(=O)(=O)O)c2ccc(N=Nc3ccc(N=Nc4ccc(S(=O)(=O)O)cc4)c4ccccc34)c(O)c12` ?
Result: 115

Task: Similarly, `Cc1ccc(O)c(N2C(=NCc3ccco3)NS(=O)(=O)c3cnccc32)c1` ?
Result: 112

Task: Similarly, `CN1CCN(CCCOc2cccc3nc(Nc4cc(Cl)cc(Cl)c4)ccc23)CC1` ?
Result: -73.6

Task: Similarly, `CSc1nc(-c2cccc(NC(=O)CCl)c2)c(C#N)c(=O)n1C` ?
Result: 11

---

# System: LOX IMVI melanoma
# test summary: NCI-60 one-dose screen, 48 h
# settings: 10 µM unless noted
About 83,000 compounds went through this panel and 20% of them were active in at least one assay; those are over-represented in the sample as a whole. Calls of active or inactive are those of the source. The calls were made as follows: active = growth percent below 10; inactive = the rest.
// allowed return values: 1 for active, -1 for inactive

Task: GET /call?item= CSc1ccc(SC2c3ccc(C)cc3Oc3nc(N)c(C#N)c(N)c32)cc1 (stereo not drawn) returns the recorded outcome of this test.
Result: 1

Task: Similarly, Cc1ccc2c(C(C[N+](=O)[O-])c3ccccc3)c(-c3ccccc3)[nH]c2c1 (stereo not drawn) ?
Result: -1

Task: Similarly, `CSc1nc(NCc2ccccc2)c(C#N)c(-c2cccc([N+](=O)[O-])c2)n1` ?
Result: -1

Task: Similarly, `O=C(COc1cccc(/C=C2\COc3ccc(Cl)cc3C2=O)c1)c1ccc(Cl)cc1` ?
Result: -1

Task: Similarly, CCN(CC)c1ccc2c(c1)Oc1nc(N)c(C#N)c(N)c1C2Sc1ccc(SC)cc1 (stereo not drawn) ?
Result: 1

Task: Similarly, `O=C(/C=C/c1cccc([N+](=O)[O-])c1)c1ccc(O)c(CN2CCN(c3cc4c(cc3F)c(=O)c(C(=O)O)cn4C3CC3)CC2)c1` ?
Result: 1

Task: Similarly, `C=C1C(=O)O[C@H]2[C@H]1CC/C(C=Nc1ccc(C(F)(F)F)cc1N)=C\CC[C@@]1(C)O[C@@H]21` ?
Result: 1

Task: Similarly, C=CC(COC(c1ccccc1)(c1ccccc1)c1ccccc1)N(CC)CC (stereo not drawn) ?
Result: -1

---
Task: GET /call?item= `CCOc1ccc(-n2nc(C(=O)Nc3cc(OC)c(OC)c(OC)c3)nc2-c2cc(OC)c(OC)c(OC)c2)cc1` returns the recorded outcome of this test.
Result: -1

Task: Similarly, `N#C/C(=C\c1ccc(-c2ccc(Cl)c(Cl)c2)o1)c1nc(-c2ccco2)cs1` ?
Result: -1

Task: Similarly, COc1cccc2c1C(=O)c1c(O)c3c(c(O)c1C2=O)C[C@](O)(C(=O)CO)C[C@H]3O[C@@H]1C[C@@H](NC(=O)CCCCCN(C)C2(c3ccc(F)cc3)CC3CCC2C3)[C@H](O)[C@@H](C)O1 (stereo partly drawn) ?
Result: 1

Task: Similarly, `CN1CCN(c2ccc(Nc3c4ccccc4nc4ccccc34)cc2)CC1` ?
Result: -1

Task: Similarly, `COc1ccc2c(c1)C(=O)/C(=C/c1cccnc1)CC2` ?
Result: -1

Task: Similarly, `O=C(Nc1ccc(Cl)cc1)c1cc2cc(F)ccc2cc1O` ?
Result: -1

Task: Similarly, `NC(N)=N/N=C(/c1ccccc1)c1ccc(F)cc1` ?
Result: -1

Task: Similarly, `Cc1[nH]c(-c2ccc3cc[nH]c3c2)c2c1C(=O)CCCC2` ?
Result: -1

Task: Similarly, `C=C1c2nc3ccccc3n2C=C(c2cccc(Cl)c2)N1Cc1ccc(OC)cc1` ?
Result: -1

Task: Similarly, CN(CCCCCl)P(=O)(OCc1ccc([N+](=O)[O-])o1)C(F)(F)c1ccc(CC(=O)NC[C@@H](O)/C=C\[C@@H](O)[C@H](CO)Cc2ccccc2)cc1 (stereo partly drawn) ?
Result: -1
